Measured values drawn from PubChem BioAssay AID1902 for this set.

Biological target: S. pyogenes SKKanGAS, kanamycin survival, BacTiterGlo, 6 h
Test: S. pyogenes SKKanGAS kanamycin growth inhibitors – SKKanGAS strain, luminescence, dose confirmation, streptokinase promoter inhibitor project, dose response (AID 1902);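 note: lower survival reflects blocked streptokinase promoter driving kanamycin resistance gene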
Listing: EC50 of selected molecules
RECORDED METRIC: EC50

{"columns": ["SMILES RECORD", "READOUT VALUE"],
 "data": [
  ["Oc1c(CN2CCN(c3ccccn3)CC2)cc(Cl)c2cccnc12", "5.58 µM"],
  ["CCc1ccc(S(=O)(=O)/N=C2\\C=C(Nc3ccc(O)cc3)C(=O)c3ccccc32)cc1", "1.51 µM"],
  ["COc1ccc(/C=N\\NC(=O)c2cc(O)c(O)c(O)c2)cc1COc1ccc(C(=O)OCC(C)C)cc1", "7.28 µM"],
  ["Cc1nn(-c2ccccc2)c(Cl)c1/C=N/NC(=O)c1ccc(NS(=O)(=O)c2cccs2)cc1", "2.34 µM"],
  ["CN1CCN(c2c(F)cc3c(=O)c(C(=O)O)cn4c3c2OCN4C)CC1", "3.29 µM"]
]}
